Measured values drawn from patent US4732977A for this set.

Tested on: P. vulgaris A21559
Assay: M.I.C., tube dilution
Type: cell-based
Conditions: Proteus vulgaris, A21559, overnight incubation at 37° C., Nutrient Broth; read-out: MIC
Each entry below carries its recorded MIC.
Be sure to follow the number with its unit.

C[C@@H](O)[C@H]1C(=O)N2C(C(=O)[O-])=C(SCc3cccc[n+]3C)C[C@H]12 : 0.016 µg/mL
C[C@@H](O)[C@H]1C(=O)N2C(C(=O)[O-])=C(SCc3cn(C)n[n+]3CC(=O)O)C[C@H]12 : 0.13 µg/mL
C[C@@H](O)[C@H]1C(=O)N2C(C(=O)[O-])=C(SCc3n[n+](C)nn3C)C[C@H]12 : 4 µg/mL
C[C@@H](O)[C@H]1C(=O)N2C(C(=O)[O-])=C(SCCc3cccc[n+]3C)C[C@H]12 : 0.016 µg/mL
CCC[n+]1ccc(CSC2=C(C(=O)[O-])N3C(=O)[C@H]([C@@H](C)O)[C@H]3C2)cc1 : 0.06 µg/mL

# query: MIC of entry C[C@@H](O)[C@H]1C(=O)N2C(C(=O)[O-])=C(SCc3scc[n+]3C)C[C@H]12 0.03 µg/mL

# query: MIC of entry C[C@@H](O)[C@H]1C(=O)N2C(C(=O)[O-])=C(SCCc3cc[n+](C)cc3)C[C@H]12 0.016 µg/mL

====

Test: Half-life (stability) in buffer solution
Type: physicochemical
Conditions: 10^-4 M, (phosphate) buffer pH 7.4, 36.8° C.; read-out: T1/2 (half-life in solution) (converted)
quantity kind: half-life at 100 µM
Be sure to follow the number with its unit.

Example results:
C#CCC[n+]1ccccc1CSC1=C(C(=O)[O-])N2C(=O)[C@H]([C@@H](C)O)[C@H]2C1 : 10.2 h
Cc1cc(CSC2=C(C(=O)[O-])N3C(=O)[C@H]([C@@H](C)O)[C@H]3C2)c[n+](C)c1 : 13.4 h
Cc1cc(CSC2=C(C(=O)[O-])N3C(=O)[C@H]([C@@H](C)O)[C@H]3C2)cc(C)[n+]1C : 11.6 h

# query: half-life at 100 µM of entry Cc1cc(CSC2=C(C(=O)[O-])N3C(=O)[C@H]([C@@H](C)O)C3[C@H]2C)cc(C)[n+]1C (stereo in doubt) [Example 51B] 29.8 h

# query: half-life at 100 µM of entry COCC[n+]1ccccc1CSC1=C(C(=O)[O-])N2C(=O)[C@H]([C@@H](C)O)[C@H]2C1 9.9 h

# query: half-life at 100 µM of entry Cc1ccc(CSC2=C(C(=O)[O-])N3C(=O)[C@H]([C@@H](C)O)[C@H]3C2)c[n+]1C 14.4 h

# query: half-life at 100 µM of entry Cc1cc(CSC2=C(C(=O)[O-])N3C(=O)[C@H]([C@@H](C)O)C3[C@H]2C)c[n+](C)c1 (stereo in doubt) 26 h

# query: half-life at 100 µM of entry Cc1cc(C)[n+](C)c(CSC2=C(C(=O)[O-])N3C(=O)[C@H]([C@@H](C)O)[C@H]3C2)c1 16.6 h

# query: half-life at 100 µM of entry Cc1ccc(CSC2=C(C(=O)[O-])N3C(=O)[C@H]([C@@H](C)O)C3[C@H]2C)c[n+]1C (stereo in doubt) 27.8 h

# query: half-life at 100 µM of entry C[C@@H](O)[C@H]1C(=O)N2C(C(=O)[O-])=C(SCc3cs[n+](C)n3)C[C@H]12 9.8 h
